target_or_system: T1, Munc18-1-His (rat, UniProt P61765 1-594)
T1 construct: Munc18-1 (STXBP1); also called Munc18a; STXBP1; source: E. coli Rosetta BL21 (DE3), purified to homogeneity as described by Hu et al
T1 sequence (P61765 whole entry): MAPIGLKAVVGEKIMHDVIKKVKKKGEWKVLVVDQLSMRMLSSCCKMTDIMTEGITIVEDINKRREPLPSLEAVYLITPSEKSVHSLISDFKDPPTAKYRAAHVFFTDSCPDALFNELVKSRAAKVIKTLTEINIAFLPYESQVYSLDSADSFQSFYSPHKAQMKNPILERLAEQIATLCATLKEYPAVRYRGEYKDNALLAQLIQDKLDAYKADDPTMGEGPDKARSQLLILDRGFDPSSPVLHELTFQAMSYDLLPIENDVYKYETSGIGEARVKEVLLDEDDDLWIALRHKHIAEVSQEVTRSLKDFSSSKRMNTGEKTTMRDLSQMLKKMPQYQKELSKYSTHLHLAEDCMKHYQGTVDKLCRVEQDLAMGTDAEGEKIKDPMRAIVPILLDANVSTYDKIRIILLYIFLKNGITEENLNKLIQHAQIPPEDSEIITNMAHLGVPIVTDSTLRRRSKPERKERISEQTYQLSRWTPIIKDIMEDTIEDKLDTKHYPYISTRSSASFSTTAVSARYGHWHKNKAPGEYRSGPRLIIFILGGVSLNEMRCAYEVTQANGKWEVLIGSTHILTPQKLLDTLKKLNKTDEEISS
assay_conditions: both partners purified
measurement_kind: dH (kcal/mol)

Answered cases to consult:
binder	dH (kcal/mol)
QEEDIDQIVAEVKQSMS (source: synthetic peptide, bought: Genscript) [Mint1_1c peptide (266-282)]	-1.2
MDSYEQEEDIDQIVAEVKQS (source: synthetic peptide, bought: Genscript) [Mint1_7 peptide (261-280)]	-1.78

a: EEDIDQIVAEVKQSMS (source: synthetic peptide, bought: Genscript) [Mint1_6 peptide (267-282)]
b: MDSYEQEEDIDQIVAEVKQSMS (also called Mint1_1; Mint1 AHM peptide; source: synthetic peptide, bought: Genscript) [Mint1 (261-282) synthetic peptide]
c: PYPRMDSYEQEEDIDQIVAEVKQSMSSQSL (human Mint1 residues 257-286; source: synthetic peptide, bought: Genscript) [Mint1_2 peptide (257-286)]
Query string: Give the ascending ranking of the items by reported dH. Give the labels in the order specified.
Result string: b, c, a

a: EQEEDIDQIVAEVKQSMS (source: synthetic peptide, bought: Genscript) [Mint1_5 peptide (265-282)]
b: SYEQEEDIDQIVAEVKQSMS (source: synthetic peptide, bought: Genscript) [Mint1_4 peptide (263-282)]
c: PYPRMDEEEQEEDIDQIVAEVKQEMEEQEL (human Mint1 residues 257-286 with phosphomimetic Glu; source: synthetic peptide, bought: Genscript) [Mint1_3 peptide (257-286 phosphomimic)]
Query string: Order the items by recorded dH; the first position goes to the largest value. Give the labels in the order specified.
Result string: b, a, c
(b: -2.3 kcal/mol, a: -3.48 kcal/mol, c: -6.5 kcal/mol)

meta.source: paper PMC10820826
